Molecular target: mouse SMO^W535L (Mus musculus, UniProt P56726, W539L)
Construct: expressed in transfected cells
Sequence (P56726 33-793 W539L): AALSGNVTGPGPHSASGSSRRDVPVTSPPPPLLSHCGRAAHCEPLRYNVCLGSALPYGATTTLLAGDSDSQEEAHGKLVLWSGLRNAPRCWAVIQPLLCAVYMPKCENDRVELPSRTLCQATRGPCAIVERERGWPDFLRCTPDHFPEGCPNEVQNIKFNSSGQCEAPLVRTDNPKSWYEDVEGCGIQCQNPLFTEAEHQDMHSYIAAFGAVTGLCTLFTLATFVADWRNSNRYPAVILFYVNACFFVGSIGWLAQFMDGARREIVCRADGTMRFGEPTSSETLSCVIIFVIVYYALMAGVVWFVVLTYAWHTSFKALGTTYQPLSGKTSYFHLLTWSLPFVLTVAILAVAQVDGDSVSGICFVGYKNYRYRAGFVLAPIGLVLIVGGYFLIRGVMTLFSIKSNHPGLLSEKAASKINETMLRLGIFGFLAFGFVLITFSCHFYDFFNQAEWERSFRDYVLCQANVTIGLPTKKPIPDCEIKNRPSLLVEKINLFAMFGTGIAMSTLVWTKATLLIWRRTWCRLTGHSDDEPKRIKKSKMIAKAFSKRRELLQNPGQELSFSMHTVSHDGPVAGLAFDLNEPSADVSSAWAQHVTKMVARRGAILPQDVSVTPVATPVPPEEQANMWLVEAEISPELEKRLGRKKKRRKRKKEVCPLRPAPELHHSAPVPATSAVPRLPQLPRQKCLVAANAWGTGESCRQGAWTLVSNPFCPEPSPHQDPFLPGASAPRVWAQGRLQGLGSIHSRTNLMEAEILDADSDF
Assay: Mouse assay: Gli1 qPCR in MEF cells stably expressing mouse SMO W535L; also: test concentration or dose not given here
Format: cell-based
Details: mSHh-treated, 24 hours, percentage Gli1 inhibition
Method: Cell culture. All materials were purchased from Sigma-Aldrich, unless otherwise stated. Compound treatment. […] Cell lysis and one-step qPCR. […] Real-time PCR amplification was detected using the Bio-Rad CFX384 Touch PCR system. […] Real-time data were analysed using the CFX Maestro software (Bio-Rad) and obtained expression values were converted to percentage Gli1 inhibition by normalising to the average Gli1 expression of mSHh-treated control samples.
experimental readout: Mouse W535L % Inh (%)

INSERT INTO results (compound_smiles, experimental_readout, unit, quantitative_readout) VALUES
  ('O=C(Nc1ccc(-c2nc(-c3cccc(Oc4nccs4)c3)n[nH]2)cc1)c1cccc(CN2CCS(=O)(=O)CC2)c1', 'Mouse W535L % Inh', '%', 76.7),
  ('Cc1c(-c2ccc(NC(=O)c3ccc(Cl)c(CN4CCS(=O)(=O)CC4)c3)cc2)n[nH]c1C1CC1', 'Mouse W535L % Inh', '%', 49.2),
  ('O=C(Nc1ccc(-c2nc(C3CC3)n[nH]2)cc1)c1cc(F)cc(CN2CCS(=O)(=O)CC2)c1', 'Mouse W535L % Inh', '%', 67.2),
  ('O=C(Nc1ccc(-c2nc(C3CC3)n[nH]2)cc1)c1cccc(CN2CCSCC2)c1', 'Mouse W535L % Inh', '%', 66.8),
  ('O=C(Nc1ccc(-c2nc(-c3ccccn3)n[nH]2)cc1)c1cccc(CN2CCS(=O)(=O)CC2)c1', 'Mouse W535L % Inh', '%', 53.4),
  ('O=C(Nc1ccc(-c2noc(C3CCC3)n2)cc1)c1cccc(CN2CCS(=O)(=O)CC2)c1', 'Mouse W535L % Inh', '%', 77.4),
  ('O=C(Nc1ccc(-c2nc(CCc3ccccc3)n[nH]2)cc1)c1cccc(CN2CCS(=O)(=O)CC2)c1', 'Mouse W535L % Inh', '%', 64.1);

###

Target: mouse SMO^D473H (Mus musculus, UniProt P56726, D477H)
Construct: expressed in transfected cells
Sequence (P56726 33-793 D477H): as the sequence (P56726 33-793 W539L) above, with D445H, L507W counted along it
Assay: Mouse assay: Gli1 qPCR in MEF cells stably expressing mouse SMO D473H
Assay type: cell-based
Settings: mSHh-treated, 24 hours, Gli1 inhibition by qPCR, read-out: Mouse D473H pIC50 (converted)
experimental readout: IC50 (nM)

Answered examples (10):
INSERT INTO results (compound, experimental_readout, quantitative_readout) VALUES
  ('O=C(Nc1ccc(-c2nc(C3CCCC3)n[nH]2)cc1)c1cccc(CN2CCS(=O)(=O)CC2)c1 [Example 3-5]', 'IC50', 50.1),
  ('O=C(Nc1ccc(-c2nc(-c3cccc(F)c3)n[nH]2)cc1)c1cccc(CN2CCS(=O)(=O)CC2)c1 [Example 3-10]', 'IC50', 251),
  ('O=C(Nc1ccc(-c2nc(C3CC3)n[nH]2)cc1)c1cc(F)cc(CN2CCS(=O)(=O)CC2)c1 [Example 2-2]', 'IC50', 126),
  ('O=C(Nc1ccc(-c2noc(Cc3ccccc3)n2)cc1)c1cccc(CN2CCS(=O)(=O)CC2)c1 [Example 4-15]', 'IC50', 31.6),
  ('Cl.O=C(Nc1ccc(-c2nnc(C3CC3)o2)cc1)c1cccc(CN2CCS(=O)(=O)CC2)c1 [Example 4-8]', 'IC50', 794),
  ('Cc1cc(Cc2n[nH]c(-c3ccc(NC(=O)c4cccc(CN5CCS(=O)(=O)CC5)c4)cc3)n2)ccc1Br [Example 3-27]', 'IC50', 631),
  ('CC(C)c1noc(-c2ccc(NC(=O)c3cccc(CN4CCS(=O)(=O)CC4)c3)cc2)n1 [Example 4-10]', 'IC50', 12.6),
  ('Cl.O=C(Nc1ccc(-c2noc(C3CC3)n2)cc1)c1cccc(CN2CCS(=O)(=O)CC2)c1 [Example 4-12]', 'IC50', 39.8),
  ('O=C(Nc1ccc(-c2nc(CC3CC3)n[nH]2)cc1)c1cccc(CN2CCS(=O)(=O)CC2)c1 [Example 3-7]', 'IC50', 200),
  ('O=C(Nc1ccc(-c2nc(-c3cccc(Cl)c3)n[nH]2)cc1)c1cccc(CN2CCS(=O)(=O)CC2)c1 [Example 3-11]', 'IC50', 100);

[P] COc1cccc(Cc2n[nH]c(-c3ccc(NC(=O)c4cccc(CN5CCS(=O)(=O)CC5)c4)cc3)n2)c1 [Example 3-22]
[Q] O=C(Nc1ccc(-c2nc(C3CC3)n[nH]2)cc1)c1cc(Cl)cc(CN2CCS(=O)(=O)CC2)c1 [Example 2-4]
When the recorded IC50 values are compared, which is smaller: that of P or that of Q ? Could you answer with the label of the item you picked?
Q
(Q: 39.8 nM, P: 63.1 nM)

[P] Cc1ccc(Cc2nc(-c3ccc(NC(=O)c4cccc(CN5CCS(=O)(=O)CC5)c4)cc3)no2)cc1 [Example 4-16]
[Q] Cl.Cn1nc(-c2ccc(NC(=O)c3cccc(CN4CCS(=O)(=O)CC4)c3)cc2)nc1C1CC1 [Example 4-27]
Param pair: P , Q . Output: the one whose IC50 is numerically greater. Could you answer with the label of the item you picked?
Q
(Q: 50.1 nM, P: 12.6 nM)

Values from patent US20250136559A1
